Recorded pIC50 for the following compounds
Biological target: Midkine (Homo sapiens)
Sequence (P21741 whole entry): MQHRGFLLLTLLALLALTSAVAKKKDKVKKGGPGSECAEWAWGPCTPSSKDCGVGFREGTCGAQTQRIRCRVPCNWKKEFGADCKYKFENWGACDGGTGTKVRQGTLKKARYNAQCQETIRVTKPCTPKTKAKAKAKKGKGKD
Assay: Inhibition of fluorescein labelled heparin-like hexasaccharide probe binding to recombinant human midkine after 5 mins by fluorescence polarization assay
Reminder that pIC50 means the negative base-10 logarithm of the concentration expressed in mol/L.

>>> value_measured("COc1ccc(O[C@@H]2O[C@H](COC(=O)CCC(F)(F)C(F)(F)C(F)(F)C(F)(F)C(F)(F)C(F)(F)C(F)(F)C(F)(F)F)[C@@H](O[C@@H]3O[C@H](COS(=O)(=O)O)[C@@H](OS(=O)(=O)O)[C@H](OC(=O)CCC(C)=O)[C@H]3N3C(=O)c4ccccc4C3=O)[C@H](OCc3ccccc3)[C@H]2OC(=O)c2ccccc2)cc1")
6.15

-- ask For the record COc1ccc(O[C@@H]2O[C@H](COC(=O)CCC(F)(F)C(F)(F)C(F)(F)C(F)(F)C(F)(F)C(F)(F)C(F)(F)C(F)(F)F)[C@@H](O[C@@H]3O[C@H](COS(=O)(=O)O)[C@@H](OS(=O)(=O)O)[C@H](O[C@@H]4O[C@H](COC(=O)C(C)(C)C)[C@@H](O[C@@H]5O[C@H](COS(=O)(=O)O)[C@@H](OS(=O)(=O)O)[C@H](OC(=O)CCC(C)=O)[C@H]5N5C(=O)c6ccccc6C5=O)[C@H](OCc5ccccc5)[C@H]4OC(=O)c4ccccc4)[C@H]3N3C(=O)c4ccccc4C3=O)[C@H](OCc3ccccc3)[C@H]2OC(=O)c2ccccc2)cc1 , what value of pIC50 is listed for Midkine (Homo sapiens)?
-- reply 6.57
